measurement target: cat T1R1/T1R3 receptor (Felis catus, UniProt A0ABI7Z2I4)
Sequence (A0ABI7Z2I4 171-420): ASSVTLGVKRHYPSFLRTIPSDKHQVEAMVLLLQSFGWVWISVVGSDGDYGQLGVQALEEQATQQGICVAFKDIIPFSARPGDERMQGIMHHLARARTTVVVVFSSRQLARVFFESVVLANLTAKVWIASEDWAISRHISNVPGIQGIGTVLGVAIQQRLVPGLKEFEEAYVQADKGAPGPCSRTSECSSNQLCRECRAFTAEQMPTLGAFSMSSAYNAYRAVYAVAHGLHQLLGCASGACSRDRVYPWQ
Sequence (Q49KI5 with tags, fused parts or gaps E206Q/N523D/F654L partner): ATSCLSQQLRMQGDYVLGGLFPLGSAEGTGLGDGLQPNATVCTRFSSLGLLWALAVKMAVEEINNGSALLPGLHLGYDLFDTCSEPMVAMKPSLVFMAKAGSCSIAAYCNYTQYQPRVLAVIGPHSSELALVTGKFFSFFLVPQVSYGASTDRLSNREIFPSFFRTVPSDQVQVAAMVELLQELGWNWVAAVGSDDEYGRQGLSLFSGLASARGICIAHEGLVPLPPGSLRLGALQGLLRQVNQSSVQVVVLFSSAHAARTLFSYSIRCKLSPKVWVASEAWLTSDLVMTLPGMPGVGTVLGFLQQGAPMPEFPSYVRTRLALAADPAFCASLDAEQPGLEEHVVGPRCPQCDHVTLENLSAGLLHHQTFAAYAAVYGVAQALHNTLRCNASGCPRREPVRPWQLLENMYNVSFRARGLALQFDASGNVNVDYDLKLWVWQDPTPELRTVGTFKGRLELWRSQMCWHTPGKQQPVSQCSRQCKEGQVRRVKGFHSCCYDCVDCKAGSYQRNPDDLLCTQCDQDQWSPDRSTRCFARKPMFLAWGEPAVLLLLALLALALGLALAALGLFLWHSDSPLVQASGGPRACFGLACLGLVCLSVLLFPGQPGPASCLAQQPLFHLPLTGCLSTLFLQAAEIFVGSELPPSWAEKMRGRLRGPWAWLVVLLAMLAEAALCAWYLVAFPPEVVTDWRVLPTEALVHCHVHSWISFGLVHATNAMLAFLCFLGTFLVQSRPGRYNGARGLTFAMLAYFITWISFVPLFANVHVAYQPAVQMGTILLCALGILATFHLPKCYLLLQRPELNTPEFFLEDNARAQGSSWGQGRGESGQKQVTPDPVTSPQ
measurement description: cell-based
Where a name gives a salt, the structure may show the parent alone.
reported endpoint: Max resp. (ΔF/F)

Completed entries (count: 6):
{"columns": ["compound", "measurement target", "test result"],
 "data": [
  ["Nc1nc2c(ncn2C2CC(OP(=O)(O)O)C(COP(=O)(O)O)O2)c(=O)[nH]1 (stereo not drawn) [2′-Deoxyguanosine-3′,5′-O-bisphosphate]", "cat T1R1/T1R3 receptor (Felis catus, UniProt A0ABI7Z2I4)", "1.8925 ΔF/F"],
  ["CNc1ccccc1C(=O)O[C@H]1C[C@H](n2cnc3c(N)ncnc32)O[C@@H]1COP(=O)(O)O", "cat T1R1/T1R3 receptor (Felis catus, UniProt A0ABI7Z2I4)", "0.3975 ΔF/F"],
  ["Nc1nc2c(ncn2C2CC(O)C(COP(O)(O)=S)O2)c(=O)[nH]1 (stereo not drawn)", "cat T1R1/T1R3 receptor (Felis catus, UniProt A0ABI7Z2I4)", "1.0775 ΔF/F"],
  ["Nc1nc2c(nc(Br)n2[C@@H]2O[C@H](COP(=O)(O)O)[C@@H](O)[C@H]2O)c(=O)[nH]1 [8-Bromoguanosine-5′-O-monophosphate]", "cat T1R1/T1R3 receptor (Felis catus, UniProt A0ABI7Z2I4)", "0.375 ΔF/F"],
  ["O=c1ccn([C@H]2C[C@H](O)[C@@H](COP(O)(O)=S)O2)c(=O)[nH]1 [2′-Deoxyuridine-5′-O-monophosphorothioate (5′-dUMPS)]", "cat T1R1/T1R3 receptor (Felis catus, UniProt A0ABI7Z2I4)", "0.4200 ΔF/F"],
  ["CNc1ccccc1C(=O)OC1C[C@H](n2cnc3c(=O)[nH]c(N)nc32)O[C@@H]1COP(=O)(O)O (stereo partly drawn)", "cat T1R1/T1R3 receptor (Felis catus, UniProt A0ABI7Z2I4)", "0.295 ΔF/F"]
]}

Query block: Give the reported value of Max resp. (ΔF/F) for this record: O=c1ccn([C@H]2C[C@H](O)[C@@H](COP(O)(O)=S)O2)c(=O)[nH]1 [2′-Deoxyuridine-5′-O-monophosphosphorothioate (5′-dUMPS)]
Result block: 0.4200 ΔF/F

Query block: Give the reported value of Max resp. (ΔF/F) for this record: Nc1nc2c(ncn2[C@@H]2O[C@H](COP(O)(O)=S)[C@@H](O)[C@H]2O)c(=O)[nH]1 [Guanosine-5′-monophosphorothioate]
Result block: 1.29 ΔF/F

Query block: Give the reported value of Max resp. (ΔF/F) for this record: Nc1nc2c(ncn2[C@@H]2O[C@H](COP(=O)(O)O)[C@@H](O)[C@H]2O)c(=S)[nH]1 [6-Thiogaunosine-5′-O-monophosphate]
Result block: 1.3614 ΔF/F

Query block: Give the reported value of Max resp. (ΔF/F) for this record: Nc1ncnc2c1ncn2[C@H]1C[C@H](OP(=O)(O)O)[C@@H](COP(=O)(O)O)O1 [2′-deoxyadenosine-3′, 5′-O-bisphosphate]
Result block: 0.8 ΔF/F

Query block: Give the reported value of Max resp. (ΔF/F) for this record: O=C(Nc1ncnc2c1ncn2[C@@H]1O[C@H](COP(=O)(O)O)[C@@H](O)[C@H]1O)c1ccccc1
Result block: 1.1 ΔF/F

Query block: Give the reported value of Max resp. (ΔF/F) for this record: O=c1[nH]cnc2c1ncn2C1OC(COP(=O)(O)OP(=O)(O)O)C(O)C1O (stereo not drawn) [Inosine 5′-diphosphate (IDP) sodium salt, inosine 5′-diphosphate (IDP) sodium salt]
Result block: 0.3 ΔF/F

* * *

measurement target: T1R1/T1R3 receptor (Felis catus, UniProt E3UMS2)
measurement description: cell-based
Format: cell-based
conditions used: EC50 +Alanine + IMP, +Alanine (20 mM) + IMP (0.2 mM); Table 18
pEC50: −log10 of the molar value.
reported endpoint: pEC50

Completed entries (count: 3):
{"columns": ["compound", "test result"],
 "data": [
  ["CCC(CC)NC(=O)c1ccc(Br)o1", "< 3.00"],
  ["CCC(CC)NC(=O)c1ccc(OC)c(OC)c1 [3,4-dimethoxy-N-(pentan-3-yl)benzamide]", "< 2.52"],
  ["COc1ccc(/C=C/C(=O)NC2CCCCC2C)cc1 (centres unmarked)", "< 2.52"]
]}

Query block: Give the reported value of pEC50 for this record: COC(=O)C(NC(=O)/C=C/c1cccs1)C(C)C (centres unmarked)
Result block: < 2.00

Query block: Give the reported value of pEC50 for this record: O=C(Nc1ccccc1Br)N[C@@H]1c2ccccc2C[C@@H]1O (stereo in doubt)
Result block: < 2.52

* * *

measurement target: T1R1/T1R3 receptor (Felis catus, UniProt E3UMS2)
measurement description: Example 8: agonist screening of transmembrane compounds on T1R1/T1R3 in HEK293 cells
Type: cell-based, cat
conditions used: transmembrane compound tested at 0.01, 0.1 and 1 mM; HEK293 cells expressing T1R1/T1R3; intracellular calcium
reported endpoint: T1R1/T1R3 agonist

Completed entries (count: 6):
{"columns": ["molecule", "measurement target", "reported endpoint", "test result"],
 "data": [
  ["COC(=O)[C@@H](Cc1ccccc1)NCc1ccccc1.Cl [Formula 16]", "T1R1/T1R3 receptor (Felis catus, UniProt E3UMS2)", "T1R1/T1R3 agonist", "Yes"],
  ["COc1ccc(C(=O)CN2C(=O)C(=O)N(Cc3ccccc3)C2=O)c(OC)c1 [Formula 5]", "T1R1/T1R3 receptor (Felis catus, UniProt E3UMS2)", "T1R1/T1R3 agonist", "No"],
  ["O=C(CN1C(=O)C(=O)N(CCc2cccs2)C1=O)c1cccc2ccccc12 [Formula 11]", "T1R1/T1R3 receptor (Felis catus, UniProt E3UMS2)", "T1R1/T1R3 agonist", "No"],
  ["O=C1CC(=O)N(Cc2ccccc2)C(=O)N1Cc1ccccc1 [Formula 24]", "T1R1/T1R3 receptor (Felis catus, UniProt E3UMS2)", "T1R1/T1R3 agonist", "Yes"],
  ["O=C(CN1C(=O)C(=O)N(CCc2cccs2)C1=O)c1ccc2c(c1)OCO2 [Formula 7]", "T1R1/T1R3 receptor (Felis catus, UniProt E3UMS2)", "T1R1/T1R3 agonist", "No"],
  ["O=C(O)[C@H](Cc1ccc(O)cc1)NCc1ccccc1 [Formula 22, N-Benzyl-L-Tyrosine]", "T1R1/T1R3 receptor (Felis catus, UniProt E3UMS2)", "T1R1/T1R3 agonist", "No"]
]}

Query block: Find T1R1/T1R3 agonist for COC(=O)[C@H](CC(C)C)NCc1ccccc1.Cl [Formula 18] on T1R1/T1R3 receptor (Felis catus, UniProt E3UMS2) and write it down.
Result block: Yes

Query block: Find T1R1/T1R3 agonist for COC(=O)C(NCc1ccccc1)c1ccccc1 (stereo not shown) [Formula 19, Methyl-2-benzylamino-2-phenylacetate] on T1R1/T1R3 receptor (Felis catus, UniProt E3UMS2) and write it down.
Result block: Yes

Query block: Find T1R1/T1R3 agonist for N[C@@H](Cc1ccc(O)cc1)C(=O)OCc1ccccc1 [Formula 21, L-Tyrosine benzyl ester] on T1R1/T1R3 receptor (Felis catus, UniProt E3UMS2) and write it down.
Result block: No

Query block: Find T1R1/T1R3 agonist for COc1ccccc1C(=O)CN1C(=O)C(=O)N(Cc2cccs2)C1=O [Formula 10] on T1R1/T1R3 receptor (Felis catus, UniProt E3UMS2) and write it down.
Result block: No

* * *

measurement target: T1R1/T1R3 receptor (Felis catus, UniProt E3UMS2)
measurement description: cell-based
Type: cell-based
conditions used: compound alone in buffer; Table 17; read-out: EC50 + buffer (alone)
reported endpoint: EC50

Completed entries (count: 3):
{"columns": ["molecule", "EC50"],
 "data": [
  ["CCC(CC)NC(=O)/C=C/c1ccc(OC)cc1", "450 µM"],
  ["O=C(NCCc1ccccc1)C(=O)NCc1cccnc1", "> 1000 µM"],
  ["CCC(CC)NC(=O)c1ccc2c(c1)OCCO2", "> 1000 µM"]
]}

Query block: Give the reported value of EC50 for this record: CC1CCCC(NC(=O)c2ccc3c(c2)OCO3)C1C (stereo not drawn)
Result block: 2000 µM

Query block: Give the reported value of EC50 for this record: CCCC(CCC)C(=O)Nc1ccc2c(c1)OCO2
Result block: 350 µM

Query block: Give the reported value of EC50 for this record: COc1ccc(C(=O)NC(C)c2ccccc2)cc1C (stereo not drawn)
Result block: > 3000 µM

* * *

measurement target: T1R1/T1R3 receptor (Felis catus)
measurement description: cell-based
Assay type: cell-based
conditions used: +IMP (0.2 mM); Table 18
List of Max resp ΔF/F +IMP values.
API note: the answer field is a bare number with no unit suffix.

Completed entries (count: 2):
{"columns": ["compound", "reported endpoint", "test result"],
 "data": [
  ["CCC(CC)NC(=O)c1ccc(OC)c(OC)c1 [3,4-dimethoxy-N-(pentan-3-yl)benzamide]", "Max resp ΔF/F +IMP", 0.9975],
  ["CCCC(CCC)C(=O)Nc1ccc2c(c1)OCO2", "Max resp ΔF/F +IMP", 0.908]
]}

Here is another compound to look at.
Query block: Give the reported value of Max resp ΔF/F +IMP for this record: COc1ccc(/C=C/C(=O)NC2CCCCC2C)cc1 (stereo not drawn)
Result block: 1.7725
